- experimentalDetails: Novel Modifiers of Survival Motor Neuron (SMN) Protein: Gene Identification via Genome-wide siRNA Screen;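 further: luminescence tracks full-length SMN protein made from the SMN2 reporter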
- particulars: HEK293T SMN2-luciferase reporter, siRNA knockdown, 72 h; actives lie on both sides
Out of some 31,000 sequences screened, about 1,400 (4.5%) were called active. Many of the other results were omitted from the sample, so actives are more common in it than they were.
quantityKind: median seed-adjusted z-score
The reply should be a number, written without any unit.

Before answering, review these 6 worked examples.
querySequence | quantityKind | reading
AGAUCUACAUCGUGAUGAATT against CDC2L1 | median seed-adjusted z-score | -1.14
CCACGUUCACCAAGAUCUUTT against RBM38 | median seed-adjusted z-score | 0.0358
CACUAGCAGUUGCAAGUAATT against RAB3GAP2 | median seed-adjusted z-score | 0.0583
CAGUCAAUGUUGUUCAGUUTT against GARS | median seed-adjusted z-score | 0.138
GAUGGGACAUCGUUGCUCATT against OASL | median seed-adjusted z-score | 1.02
GUGUUAUAACAAUCGAAGATT against CAPSL | median seed-adjusted z-score | -0.168

Challenge: Returns the measured median seed-adjusted z-score for the input sequence. Input: GGAAUUCCGUAAAAGCAUUTT against HOXC13
Response given: -0.318

Challenge: For GAGACCUAAUGUUUCAUAUTT against PRKCI then?
Response given: 0.386

Challenge: For GCAGCCCUGAUGUCCAGUATT against EFS then?
Response given: -0.299

Challenge: For CAUCAUCCAUGGUAGCUUUTT against DUOX1 then?
Response given: -1.09

Challenge: For GCAGUGAUCUAGUCUCUUUTT against GLRX then?
Response given: -0.0561

Challenge: For GGACCACAAUGUACGGAAATT against ATP13A5 then?
Response given: 0.241

Challenge: For GUAUUAUUUUCGUACACGATT against RABL3 then?
Response given: 0.843

Challenge: For CUACCAUGGUGUACCAACATT against QRICH1 then?
Response given: -1.04

Challenge: For GAGCUGAUCUGUUACAAGUTT against DAK then?
Response given: -0.372

Challenge: For CCCUGUUAGUAACGGCAAATT against OBFC2B then?
Response given: -0.061
